assayOverview: chemical genetic growth profiling, strain panel (AID 1159580);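 note: tested at 20 µM; growth read once vehicle control cultures reached saturation at 30 °C; 1 = growth at the plate median or of vehicle wells; lower values mean less growth of the strain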
condition: S. cerevisiae deletion strains, growth OD, locus YOR184W, strain ser1, active compounds read low
Hit rate of the full screen: of about 5,500 compounds, about 2,000 (36%) were called active. Another 18% or so got no clear call; they are omitted. The list shows a part of the results.
Answer each item with its documented normalized growth.
Answers are plain numbers.

The following compounds each have a reported value; give each one's normalized growth.
1. CCN1CCN(C(=O)NC(C(=O)N[C@@H]2C(=O)N3[C@@H]2SC(C)(C)[C@@H]3C(=O)O)c2ccccc2)C(=O)C1=O (some centres not stated)
2. COc1ccc(C2Sc3ccccc3N(CCN(C)C)C(=O)C2OC(C)=O)cc1 (configuration not stated)
3. CCN(CC)CCOC(=O)C1(C2CCCCC2)CCCCC1
4. CC(CCc1ccccc1)NCC(O)c1ccc(O)c(C(N)=O)c1 (configuration not stated)

**Result**
1. 1.02
2. 1.07
3. 0.992
4. 1.01

Give normalized growth for each of the items listed below.
1. CN(C)CCCN1c2ccccc2Sc2ccc(C(F)(F)F)cc21
2. CC(N=C(NC#N)Nc1ccncc1)C(C)(C)C (configuration not stated)

**Result**
1: 0.96; 2: 1.03

###

assayOverview: chemical genetic growth profiling, strain panel (AID 1159580);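 note: tested at 20 µM; growth read once vehicle control cultures reached saturation at 30 °C; 1 = growth at the plate median or of vehicle wells; lower values mean less growth of the strain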
condition: S. cerevisiae deletion strains, growth OD, locus YBR009C, strain hhf1
Among all 5,500 compounds or so, about 2,000 (36%) were called active. Another 18% or so got no clear call; they are omitted. Cut-off read from the data, not from the text of the source: active = normalized growth mostly below about 0.91 (no sharp cut-off); inconclusive = no clear call, values can overlap the other calls; inactive = mostly above about 0.92. The list shows a part of the results.
Please state which outcome applies, choosing from active, inactive

Below are worked cases with known answers.
>>> df
                                   compound  classname
0  CC(C)CCCC(C)C1CCC2C3CC(=O)[C@H]4C[C@@H](O)CC[C@]4(C)C3CC[C@]12C (stereo partly specified)   inactive
1  OC[C@H]1O[C@@H](O[C@H]2[C@H](O)[C@@H](O)[C@@H](O)O[C@@H]2CO)[C@H](O)[C@@H](O)[C@@H]1O   inactive
2             CN(C)CCCN1c2ccccc2CCc2ccccc21   inactive
3          CN(C)CCCN1c2ccccc2Sc2ccc(Cl)cc21     active

**Query** For this compound, state the assay outcome: Oc1c(Cl)cc(Cl)cc1Sc1cc(Cl)cc(Cl)c1O
**Result** active

**Query** Recorded test outcome, item CC(C)CCCC(C)[C@H]1CCC2C3CC=C4C[C@@H](O)CC[C@]4(C)C3CC[C@@]21C (stereo partly specified)
**Result** inactive

**Query** Hello, I am checking results. What call was entered for Nc1ccc(C(=O)O)cc1 ?
**Result** inactive

**Query** Write down the call the test reported for this compound. Item: NS(=O)(=O)c1cc2c(cc1Cl)NC(CSCc1ccccc1)=NS2(=O)=O
**Result** inactive

**Query** Dear all, I need the recorded test outcome for C[C@H](CCC(=O)O)[C@H]1CCC2C3C(=O)CC4CC(=O)CC[C@]4(C)C3CC(=O)[C@@]21C (stereo partly specified) , thank you.
**Result** inactive

**Query** Could you check what this test reported for CN(C)CCCN1c2ccccc2Sc2ccc(C(F)(F)F)cc21 ?
**Result** inactive

**Query** Hello, I am checking results. What call was entered for CC(CCC(=O)O)[C@H]1CCC2C3CC[C@@H]4C[C@H](O)CC[C@]4(C)C3C=C[C@@]21C (stereo partly specified) ?
**Result** inactive

**Query** Please indicate how the test categorized CC(C)c1ccc2c(c1)CCC1C(C)(C(N)=O)CCCC21C (stereo unspecified) .
**Result** inactive

**Query** Field: outcome | Entry: CC(C)CCCC(C)C1CCC2C3=CC[C@H]4C[C@@H](O)CC[C@]4(C)C3CC[C@@]21C (stereo partly specified)
**Result** inactive

**Query** Tell me the recorded outcome of this test for OC[C@H]1O[C@@H](O[C@@H]2[C@@H](CO)O[C@](O)(CO)[C@H]2O)[C@H](O)[C@@H](O)[C@H]1O .
**Result** inactive
